Hey, just so you know, these numbers are from patent US10214534B2.

# System: genotype 1b (Con-1) HCV replicon
# assay-procedure: HCV replicon luciferase assay
# Format: cell-based
# settings: Hepatitis C virus, 72 h; genotype 1b replicon, Huh-7, Renilla luciferase, 3 days; read-out: EC50 1b (class)
pEC50: −log10 of the molar value.
Measured pEC50 values are reported for all entries that follow.

- molecule: "CCN(c1cc2oc(-c3ccc(Oc4ccccc4)cc3)c(C(=O)NC)c2cc1-c1cccc(C(=O)NC(C)(C)C)c1)S(C)(=O)=O [Compound 1001]"
  test-target: "genotype 1b (Con-1) HCV replicon"
  pEC50: "> 7.00"
- molecule: "CNC(=O)c1c(-c2ccc(Oc3cccc(C)c3)cc2)oc2nc(CCC(F)(F)F)c(-c3cccc(C(=O)NC(C)(C)C)c3)cc12 [Compound 2007]"
  test-target: "genotype 1b (Con-1) HCV replicon"
  pEC50: "> 7.00"
- molecule: "CNC(=O)c1c(-c2ccc(Oc3cccc(OC)c3)cc2)oc2nc(CCC(F)(F)F)c(-c3cccc(C(=O)NC(C)(C)C)c3)cc12 [Compound 2009]"
  test-target: "genotype 1b (Con-1) HCV replicon"
  pEC50: "> 7.00"
- molecule: "CNC(=O)c1c(-c2ccc(Oc3ccc(OC)cc3)cc2)oc2nc(CCC(F)(F)F)c(-c3cccc(C(=O)NC(C)(C)C)c3)cc12 [Compound 2003]"
  test-target: "genotype 1b (Con-1) HCV replicon"
  pEC50: "6.00 to 7.00"
- molecule: "CNC(=O)c1c(-c2ccc(Oc3ccccc3F)cc2)oc2nc(CCC(F)(F)F)c(-c3cccc(C(=O)NC(C)(C)C)c3)cc12 [Compound 2006]"
  test-target: "genotype 1b (Con-1) HCV replicon"
  pEC50: "> 7.00"

We now examine a further molecule.
(Q) Tell me the measured pEC50 of CCN(c1cc2oc(-c3ccc(Oc4ccccc4OC)cc3)c(C(=O)NC)c2cc1-c1cccc(C(=O)NC(C)(C)C)c1)S(C)(=O)=O [Compound 1007] , please.
(A) > 7.00
